Target: canine FcRn/B2M protein complex (canine FcRn ECD with C-terminal poly-His tag and canine Beta-2-Microglobulin) (canine)
Assay: SPR Biacore 8K, pH 6.0, 25 C; Fc captured by SASA tag on BSA chip, FcRn/B2M 400 nM as analyte
Here, each record is paired with measured koff data.

binder | output unit | koff
variant canine IgG-B Fc polypeptide Y0R (Leu24Tyr, Asn208Arg) (protein, not shown: small tags and cut ends) CPAPEMLGGPSVFIFPPKPKDTLYIARTPEVTCVVVDLDPEDPEVQISWFVDGKQMQTAKTQPREEQFNGTYRVVSVLPIGHQDWLKGKQFTCKVNNKALPSPIERTISKARGQAHQPSVYVLPPSREELSKNTVSLTCLIKDFFPPDIDVEWQSNGQQEPESKYRTTPPQLDEDGSYFLYSKLSVDKSRWQRGDTFICAVMHEALHRHYTQESLSHSPGK | s⁻¹ | 0.00295
variant canine IgG-B Fc polypeptide YYR (Leu24Tyr, Gln83Tyr, Asn208Arg) (protein, not shown: small tags and cut ends) CPAPEMLGGPSVFIFPPKPKDTLYIARTPEVTCVVVDLDPEDPEVQISWFVDGKQMQTAKTQPREEQFNGTYRVVSVLPIGHYDWLKGKQFTCKVNNKALPSPIERTISKARGQAHQPSVYVLPPSREELSKNTVSLTCLIKDFFPPDIDVEWQSNGQQEPESKYRTTPPQLDEDGSYFLYSKLSVDKSRWQRGDTFICAVMHEALHRHYTQESLSHSPGK | s⁻¹ | 0.000638
wild-type canine IgG-B Fc polypeptide (protein, not shown: small tags and cut ends) CPAPEMLGGPSVFIFPPKPKDTLLIARTPEVTCVVVDLDPEDPEVQISWFVDGKQMQTAKTQPREEQFNGTYRVVSVLPIGHQDWLKGKQFTCKVNNKALPSPIERTISKARGQAHQPSVYVLPPSREELSKNTVSLTCLIKDFFPPDIDVEWQSNGQQEPESKYRTTPPQLDEDGSYFLYSKLSVDKSRWQRGDTFICAVMHEALHNHYTQESLSHSPGK | s⁻¹ | 0.0856

These measurements were taken from patent US20210388053A1.
